Target: Human M4 (Homo sapiens, UniProt P08173)
Construct: expressed in transfected cells
Sequence (P08173 whole entry): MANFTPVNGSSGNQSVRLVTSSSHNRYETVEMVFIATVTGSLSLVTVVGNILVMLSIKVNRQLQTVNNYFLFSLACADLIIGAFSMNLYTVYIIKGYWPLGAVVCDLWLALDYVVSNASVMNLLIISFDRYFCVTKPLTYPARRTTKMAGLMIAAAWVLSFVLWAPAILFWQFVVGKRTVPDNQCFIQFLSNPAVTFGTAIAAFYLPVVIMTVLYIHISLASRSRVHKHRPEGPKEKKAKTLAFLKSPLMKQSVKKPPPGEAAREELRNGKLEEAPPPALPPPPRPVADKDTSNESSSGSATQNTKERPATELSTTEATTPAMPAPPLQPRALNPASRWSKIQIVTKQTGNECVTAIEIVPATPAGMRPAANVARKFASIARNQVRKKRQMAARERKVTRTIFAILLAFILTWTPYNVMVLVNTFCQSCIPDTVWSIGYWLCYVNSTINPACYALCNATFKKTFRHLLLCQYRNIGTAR
Experiment: mAChR M4 cell-based functional assay (calcium flux, potentiation of EC20 acetylcholine response), hM4-Gqi5 CHO-K1 cells
Details: CHO-K1; Table 3; Human M4; % ACh maximum at 30 μM; read-out: Emax (% ACh maximum at 30 μM)
ASSAY_READOUT: Emax at 30 µM (%)
# unit: % | format: bare number

// known answers, use as guide
COMPOUND | ASSAY_READOUT | UNITS_LABEL | QUANTITATIVE_RESULT
COc1ccc(-c2cnc3c(c2)CN(c2nn4cnnc4cc2C)CC3)cn1 [Compound 202] | Emax at 30 µM | % | 95
Cc1c(N2Cc3cc(C(F)(F)F)cnc3C(C)C2)nn2cnnc2c1C (stereo not shown) [Compound 246] | Emax at 30 µM | % | 90
Cc1c(N2CCc3ncc(-c4ccc(N5CC6(C5)CC(F)(F)C6)nc4)cc3C2)nn2cnnc2c1C [Compound 208] | Emax at 30 µM | % | 96

Query: Determine from records and report Emax at 30 µM for Cc1c(N2CCc3ncc(Oc4cccc(F)c4)cc3C2)nn2c(C(F)(F)F)nnc2c1C [Compound 278]
Reply: 84

Query: State its Emax at 30 µM: Cc1c(N2CCc3ncc(-c4ccc(N5CCN(C)CC5)cc4)cc3C2)nn2cnnc2c1C [Compound 224]
Reply: 100

Query: Output measured Emax at 30 µM for this item: Cc1c(N2CCc3ncc(C4CC4)cc3C2)nn2c(C(F)(F)F)nnc2c1C [Compound 222]
Reply: 83

Query: Look up and state reported Emax at 30 µM for Cc1ncc(-c2cnc3c(c2)CN(c2nn4cnnc4cc2C)CC3)s1 [Compound 194]
Reply: 88

Query: Using known records, supply Emax at 30 µM for COc1ccc2c(c1)CCCN2c1cnc2c(c1)CN(c1nn3c(C(F)(F)F)nnc3c(C)c1C)CC2 [Compound 229]
Reply: 48

Query: Fill in reported Emax at 30 µM for this entry: Cc1c(N2CCc3ncc(OCC4CCOC4)cc3C2)nn2cnnc2c1C (stereo not shown) [Compound 264]
Reply: 82

Query: Retrieve Emax at 30 µM measured for Cc1c(N2CCc3ncc(C4CC4)cc3C2)nn2cnnc2c1C [Compound 200] and print it.
Reply: 93

Query: Output Emax at 30 µM of Cc1c(N2CCc3ncc(-c4cccnc4C(F)(F)F)cc3C2)nn2cnnc2c1C [Compound 172]
Reply: 73

Query: State, in one line, measured Emax at 30 µM of Cc1c(N2CCc3ncc(-c4ccc(N5CCOCC5)cc4)cc3C2)nn2cnnc2c1C [Compound 223]
Reply: 95

Query: Write down Emax at 30 µM measured for item Cc1c(N2CCc3ncc(-c4ccns4)cc3C2)nn2c(C(F)(F)F)nnc2c1C [Compound 252]
Reply: 80

Query: Output measured Emax at 30 µM for this item: Cc1c(N2CCc3ncc(Nc4nn(C)c5ccccc45)cc3C2)nn2cnnc2c1C [Compound 210]
Reply: 69
